Each entry below lists one item and its recorded IC50 value.
- target or test system: Coagulation factor XI (Homo sapiens, UniProt P03951)
- Sequence (P03951 19-387 limits assumed): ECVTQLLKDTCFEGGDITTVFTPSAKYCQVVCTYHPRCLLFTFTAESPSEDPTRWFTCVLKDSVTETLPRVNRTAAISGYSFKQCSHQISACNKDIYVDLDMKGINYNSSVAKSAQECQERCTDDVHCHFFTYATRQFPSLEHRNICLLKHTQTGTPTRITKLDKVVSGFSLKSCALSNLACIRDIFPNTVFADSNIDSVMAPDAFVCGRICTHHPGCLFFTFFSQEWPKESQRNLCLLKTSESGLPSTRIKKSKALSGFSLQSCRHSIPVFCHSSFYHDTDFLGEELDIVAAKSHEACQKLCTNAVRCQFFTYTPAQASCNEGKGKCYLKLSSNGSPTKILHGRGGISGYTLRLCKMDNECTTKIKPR
- Sequence (P03951 388-625 limits assumed): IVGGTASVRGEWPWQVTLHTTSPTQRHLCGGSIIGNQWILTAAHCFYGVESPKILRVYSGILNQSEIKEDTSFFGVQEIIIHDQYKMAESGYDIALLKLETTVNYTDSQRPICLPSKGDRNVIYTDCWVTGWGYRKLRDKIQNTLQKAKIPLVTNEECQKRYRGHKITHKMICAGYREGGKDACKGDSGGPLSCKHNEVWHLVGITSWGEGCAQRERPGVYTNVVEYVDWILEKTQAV

Example cases with answers are listed next.
COc1ccc(OCCSc2nc[nH]n2)cc1; > 50 µM
COc1cccc(C(=O)N(Cc2ccccc2)Cc2cc3cc4c(cc3nc2O)OCCO4)c1; 10.4 µM
O=C(c1ccc(F)cc1)N1CCN(C(=O)c2cccnc2)CC1; > 50 µM
CCn1nc(CC(=O)Nc2nnc(CC(=O)N3CCCC3)s2)c2ccccc2c1=O; > 50 µM
CCn1c(SCC(=O)c2[nH]c(C)c(C(C)=O)c2C)nnc1-c1ccccc1; 7.44 µM

Provide IC50, recorded with Coagulation factor XI (Homo sapiens, UniProt P03951), of COC(=O)C(Cc1c[nH]c2ccccc12)NC(C)=O (stereo unspecified)
6.69 µM

Provide IC50, recorded with Coagulation factor XI (Homo sapiens, UniProt P03951), of `CCOc1ccc(S(=O)(=O)NCc2ccc(OC)cc2)c2cccnc12`
> 50 µM

---

As an illustration, consider measured IC50 for compounds on Coagulation factor XI (Homo sapiens, UniProt P03951).

Example cases with answers are listed next.
CNCCCc1ccccc1; > 50 µM
N#Cc1cc2c(nc1SCC(=O)Nc1sc3c(c1C#N)CCC3)CCC2; > 50 µM
Cc1ccc(NC(=O)CCn2cccc2)cc1; > 50 µM

Provide IC50, recorded with Coagulation factor XI (Homo sapiens, UniProt P03951), of CCCC(=O)n1nc(-c2ccccc2)nc1SC [SMR000113998]
> 50 µM

Provide IC50, recorded with Coagulation factor XI (Homo sapiens, UniProt P03951), of COC(=O)c1sc(NC(=O)CC(C)C)c(C(=O)OC)c1C [SMR000141040]
> 50 µM

Provide IC50, recorded with Coagulation factor XI (Homo sapiens, UniProt P03951), of `O=C(Nc1ccccc1C(=O)N1CCOCC1)c1ccc(F)cc1`
21.4 µM

Provide IC50, recorded with Coagulation factor XI (Homo sapiens, UniProt P03951), of `Cn1c(SCC(=O)NC2CCCCC2)nnc1-c1cccc(N)c1`
> 50 µM

Provide IC50, recorded with Coagulation factor XI (Homo sapiens, UniProt P03951), of `Cc1cc(NC(=O)COC(=O)c2c(C)nn(Cc3ccccc3)c2C)no1`
> 50 µM

Provide IC50, recorded with Coagulation factor XI (Homo sapiens, UniProt P03951), of O=C(CCCN1C(=O)c2ccccc2C1=O)NCC1CCCO1 (stereo not given)
14.6 µM

Provide IC50, recorded with Coagulation factor XI (Homo sapiens, UniProt P03951), of CCC1(c2ccccc2)C(=O)N(C)C(=O)N(C)C1=O [MLS000532164]
> 50 µM

Provide IC50, recorded with Coagulation factor XI (Homo sapiens, UniProt P03951), of CCOC(=O)c1c(C)n(Cc2ccccc2)c2ccc(OCC(O)Cn3nc(C)cc3C)cc12 (stereo not given) [MLS000121399]
> 50 µM

Provide IC50, recorded with Coagulation factor XI (Homo sapiens, UniProt P03951), of Cc1cccc(NC(=O)c2snc3c(=O)[nH]cnc23)c1 [SMR000000702]
> 50 µM

Provide IC50, recorded with Coagulation factor XI (Homo sapiens, UniProt P03951), of C=CCn1c(=O)c2c(nc(Br)n2Cc2ccccc2Cl)n(C)c1=O [MLS000555959]
0.638 µM

Provide IC50, recorded with Coagulation factor XI (Homo sapiens, UniProt P03951), of `O=c1nc(-c2ccccc2)c2cc(Cl)ccc2[nH]1`
> 50 µM

Provide IC50, recorded with Coagulation factor XI (Homo sapiens, UniProt P03951), of COc1ccc(Cn2nnnc2C(c2ccccc2Cl)N2CCC(C(N)=O)CC2)cc1 (stereo not given)
> 50 µM
